Test system: HepG2
TEST_SUMMARY: Antiproliferative activity against human HepG2 cells assessed as reduction in cell growth incubated for 48 hrs by MTT assay
Format: functional, cell-based
EXPERIMENTAL_PARAMETERS: HepG2, 48 h
READOUT_LABEL: pIC50
One number for each entry, as −log10 of the molar value.

Solved entries (count: 3):
CCOc1ccc(-c2cc([C@H]3CC[C@H]4[C@@H]5CC=C6C[C@@H](O)CC[C@]6(C)[C@H]5CC[C@]34C)nc(N)c2C#N)cc1; 4.57
C[C@]12CC[C@H]3[C@@H](CC=C4C[C@@H](O)CC[C@@]43C)[C@@H]1CC[C@@H]2c1cc(-c2cccc(O)c2)c(C#N)c(N)n1; 4.86
C[C@]12CC[C@H]3[C@@H](CC=C4C[C@@H](O)CC[C@@]43C)[C@@H]1CC[C@@H]2c1cc(-c2ccc(OCc3ccccc3)cc2)c(C#N)c(N)n1; 4.80

The following molecules each have a reported value; give each one's pIC50.
1. C[C@]12CC[C@H]3[C@@H](CC=C4C[C@@H](O)CC[C@@]43C)[C@@H]1CC[C@@H]2c1cc(-c2ccco2)c(C#N)c(N)n1
2. O=c1[nH]cc(F)c(=O)[nH]1
3. C[C@]12CC[C@H]3[C@@H](CC=C4C[C@@H](O)CC[C@@]43C)[C@@H]1CC[C@@H]2c1cc(-c2ccncc2)c(C#N)c(N)n1
4. C[C@]12CC[C@H]3[C@@H](CC=C4C[C@@H](O)CC[C@@]43C)[C@@H]1CC[C@@H]2c1cc(-c2cccnc2)c(C#N)c(N)n1
5. C[C@]12CC[C@H]3[C@@H](CC=C4C[C@@H](O)CC[C@@]43C)[C@@H]1CC[C@@H]2c1cc(-c2ccccc2)c(C#N)c(N)n1
6. C[C@]12CC[C@H]3[C@@H](CC=C4C[C@@H](O)CC[C@@]43C)[C@@H]1CC[C@@H]2c1cc(-c2ccc(Br)cc2)c(C#N)c(N)n1
7. COc1ccc(-c2cc([C@H]3CC[C@H]4[C@@H]5CC=C6C[C@@H](O)CC[C@]6(C)[C@H]5CC[C@]34C)nc(N)c2C#N)cc1O

-- reply
1. 4.59
2. 4.18
3. 3.99
4. 4.12
5. 4.62
6. 4.82
7. 4.30

Would you mind listing pIC50 for each of the following molecules?
1. COc1ccc(-c2cc([C@H]3CC[C@H]4[C@@H]5CC=C6C[C@@H](O)CC[C@]6(C)[C@H]5CC[C@]34C)nc(N)c2C#N)cc1
2. C[C@]12CC[C@H]3[C@@H](CC=C4C[C@@H](O)CC[C@@]43C)[C@@H]1CC[C@@H]2c1cc(-c2ccc(OCc3ccccc3)c(OCc3ccccc3)c2OCc2ccccc2)c(C#N)c(N)n1

-- reply
1. 4.46
2. 4.38
